Origin of the recorded values: the RNAGym collection of RNA variant scans (doi:10.7554/elife.80360)

B1: CPEB3 Ribozyme (parent)
chain: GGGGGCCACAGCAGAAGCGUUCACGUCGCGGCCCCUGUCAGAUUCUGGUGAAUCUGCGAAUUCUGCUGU

variants of: B1; assay: self-cleavage, relative activity (ratio to wild type); higher = more cleavage; co-transcriptional
Entries and their self-cleavage values follow.

mutant: G17C C33U
self-cleavage: 0.139
--
mutant: C6A G11A
self-cleavage: 0.536
--
mutant: U44C G58C
self-cleavage: 0.917
--
mutant: G14C C39A
self-cleavage: 0.225
--
mutant: G25C U67A
self-cleavage: 0.129
--
mutant: C33U C54U
self-cleavage: 0.949
--
mutant: A15G C33A
self-cleavage: 0.798
--
mutant: A13U G41A
self-cleavage: 0.263
--
mutant: G37C U62G
self-cleavage: 0.157
--
mutant: C7A G14U
self-cleavage: 0.131
--
mutant: A40G G41U
self-cleavage: 0.722
